- Test system: OVCAR-4 ovarian
- TEST_SUMMARY: NCI-60 one-dose screen, 48 h (100 = growth as untreated, 0 = no growth, -100 = all killed)
- CONDITION_SET: 10 µM unless noted
About 83,000 compounds went through this panel and 20% of them were active in at least one assay; those are over-represented in the sample as a whole.
Kindly supply the reported growth values for the records listed here.
One number for each entry, in %.

Would you please look over these solved cases?
[in] Need growth, item CC1Cc2ccccc2N1C(=O)c1ccc(C(=O)c2ccccc2)cc1 (configuration not stated)
[out] 71.2

[in] Need growth, item "N#Cc1c(-c2ccccc2)cc(-c2ccccc2)n(CCCCCCC(=O)O)c1=O"
[out] 111

[in] Need growth, item CC12CCC3C(=CCc4cc(O)ccc43)C1CCC2=O (configuration not stated)
[out] 107

Count: 7. Required value per item: growth.
1. COc1ccc2cc(C3=CC(=O)CCC3)ccc2c1
2. N#Cc1ccccc1C#Cc1ccccc1C#Cc1ccc(OCCCCCCOc2ccc(C#Cc3ccccc3C#Cc3ccccc3C#N)cc2)cc1
3. COc1ccc(/C=C2\CCc3ccccc3C2=O)cc1
4. NS(=O)(=O)c1ccc(-n2ncc3c(SCc4ccccc4)ncnc32)cc1
5. CCCCCCCSc1ncnc2[nH]ncc12
6. O=C(N/N=C/c1cccc(O)c1O)c1ccccc1
7. COc1cc(-c2n[nH]nc2-c2ccccn2)cc(OC)c1OC

[out]
[104, 107, 89.6, 104, 96.7, 4.38, 88.2]

Count: 7. Required value per item: growth.
1. N/C(=N\C(N)=N\c1nc2ccccc2s1)c1ccnc(Cl)c1
2. O=C(/C=C/c1ccc(C(F)(F)F)cc1)c1ccc(Nc2nc(NCCO)nc(NCCO)n2)cc1
3. Nc1nc2c(c(=O)[nH]1)C1(C(=O)Nc3ccccc31)c1c(nc(N)[nH]c1=O)N2
4. O=Nc1c2cccnc2n2nnc3ccc(Cl)cc3c12
5. O=C(CN1CCN(c2ccc(Cl)cc2)CC1)N1CCN(c2nnc(-c3ccccc3)c(-c3ccccc3)n2)CC1
6. COc1cc(/C=C2\SC(N3CCCCC3)=NC2=O)ccc1OCCCCCCOc1ccc(/C=C2\SC(N3CCCCC3)=NC2=O)cc1OC
7. O=c1[nH]c(SCc2ccccc2)nc2nc(Nc3ccc(NC(=S)Nc4ccccc4)cc3)nc(-c3ccc(O)cc3O)c12

[out]
1. 79.1
2. 62.3
3. 102
4. -27.7
5. 30.6
6. 21
7. 100

###

- Tested on: BT-549 breast
- TEST_SUMMARY: NCI-60 one-dose screen, 48 h
- CONDITION_SET: 10 µM unless noted
About 83,000 compounds went through this panel and 20% of them were active in at least one assay; those are over-represented in the sample as a whole. The source made the active and inactive calls. Rule for the calls: active = growth percent below 10; inactive = the rest.
In this exercise, the only acceptable responses are active, inactive

Some solved cases for reference:
[in] Could you please tell me the result logged for "FCc1ncc(-c2ccc(C(F)(F)F)cc2)c(NC2CCCCCC2)n1" in this assay?
[out] active

[in] Could you please tell me the result logged for "O=[N+]([O-])c1ccc(NS(=O)(=O)c2ccc(Cl)c(Cl)c2)cc1" in this assay?
[out] inactive

[in] Could you please tell me the result logged for CC1Cc2ccccc2N1C(=O)c1ccc(C(=O)c2ccccc2)cc1 (configuration not stated) in this assay?
[out] inactive

[in] Could you please tell me the result logged for "C/C=C(/C(=C/C)c1ccc(O)cc1)c1ccc(O)cc1" in this assay?
[out] inactive

Next:
[in] Could you please tell me the result logged for "CCCCCCCCCCN1CCC(N2CCCCC2)CC1" in this assay?
[out] inactive

[in] Could you please tell me the result logged for "Nc1ccccc1C#Cc1ccccc1C#Cc1ccc(OCCCCCCOc2ccc(C#Cc3ccccc3C#Cc3ccccc3N)cc2)cc1" in this assay?
[out] inactive

[in] Could you please tell me the result logged for CCCCCCC(CC#N)(CCC)CCCC (configuration not stated) in this assay?
[out] inactive

Where do these numbers come from? They come from PubChem BioAssay (NCI).
